Tested on: Human breast cancer cells (SUM-149PT)
Test: Inhibitory activity against human breast cancer cells (SUM-149PT), CTG cell viability
Assay type: cell-based
Details: Homo sapiens, SUM149PT, 120 h, 5 days with compound

>  <smiles_str>
C[C@H]1COc2c(-c3nc(Nc4ccc(N5CCOCC5=O)cc4F)ncc3Cl)cc(F)c3nc(C(C)(C)O)n1c23

>  <display_unit>
µM

>  <IC50>
0.256

$$$$

----------
Biological target: CDK4/CycD1 (Homo sapiens, UniProt P11802)
Sequence (P11802 whole entry): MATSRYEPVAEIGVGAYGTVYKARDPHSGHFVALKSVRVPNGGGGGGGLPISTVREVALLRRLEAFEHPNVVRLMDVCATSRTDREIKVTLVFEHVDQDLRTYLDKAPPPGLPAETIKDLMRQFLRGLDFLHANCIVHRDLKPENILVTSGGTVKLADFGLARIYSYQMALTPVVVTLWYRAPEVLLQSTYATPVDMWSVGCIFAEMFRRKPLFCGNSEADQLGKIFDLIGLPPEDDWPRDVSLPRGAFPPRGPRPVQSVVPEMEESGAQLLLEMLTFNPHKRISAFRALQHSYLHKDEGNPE
Sequence (P24385 whole entry partner): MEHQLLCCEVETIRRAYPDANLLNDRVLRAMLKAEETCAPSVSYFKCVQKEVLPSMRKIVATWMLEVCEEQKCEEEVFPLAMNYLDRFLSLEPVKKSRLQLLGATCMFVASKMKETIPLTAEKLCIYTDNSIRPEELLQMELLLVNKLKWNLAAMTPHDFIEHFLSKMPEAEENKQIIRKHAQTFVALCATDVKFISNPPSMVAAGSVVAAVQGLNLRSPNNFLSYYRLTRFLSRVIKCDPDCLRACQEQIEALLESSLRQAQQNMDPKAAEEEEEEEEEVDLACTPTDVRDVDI
Assay: Activity against cyclin-dependent kinase CDK4/CycD1 (Caliper EZ Reader mobility shift)
Details: 1 h at room temperature; highest concentration 1 µM
pIC50: −log10 of the molar value.
property: pIC50

>  <compound>
C[C@H]1COc2c(-c3nc(Nc4ccc(N5CCOCC5=O)cc4F)ncc3Cl)cc(F)c3nc(C(C)(C)O)n1c23 [Example 1]

>  <value_reported>
8.42

$$$$
